Test system: Malme-3M
Test: NCI tumour cell line growth inhibition, 48 h
Active and inactive are the calls of the source. Cut-off read from the data, not from the text of the source: active = GI50 up to about 1.1 µM and inactive = higher.
Please respond with reported GI50 for every item in the list.

Examples from the recorded data:
C[Si](C)(C)CCOCN(C(=O)C1=CCC2(CC1)OCCO2)c1ccccc1I	35.7 µM (inactive)
O=c1ncccn1C1OC(CO)C(O)C1O (stereo unspecified)	> 100 µM (inactive)
COCN1C(=O)[C@@H]2CCCN2C(=O)c2cc(Cl)ccc21	> 100 µM (inactive)
CC(=O)c1cccc(NC(=O)C(=O)Nn2c(N)nnc2N)c1	> 100 µM (inactive)
O=C1/C(=C/c2ccccc2)CN(C(=O)C(F)(F)F)C/C1=C\c1ccccc1	3.72 µM (inactive)
CC1(C)S[C@H](CN)N[C@H]1C(=O)OC(c1ccccc1)c1ccccc1	31.4 µM (inactive)
CCCCN1C(=O)CC2[C@@H]3CCc4cc(OC)ccc4C3CC[C@]2(C)C1=O (stereo partly specified)	> 10 µM (inactive)
N#CC1N(C(=O)c2ccc(F)cc2)c2ccccc2N1C(=O)c1ccc(F)cc1	68.9 µM (inactive)

Parameters: items (list). Returns: GI50 for each item.
1. Cc1c2c(c(C)n1-c1ccccc1)C(=O)N(CCCCN1CCN(c3ccccc3)CC1)C2=O
2. O=C(c1ccc(Cl)cc1)N(C(=S)OC12CC3CC(CC(C3)C1)C2)c1ccccc1
3. COC(=O)C1=CC[C@@H]2C(C(=O)O)=CO[C@@H](OC3OC(CO)C(O)C(O)C3O)[C@H]12 (stereo partly specified)
4. COc1ccc(C2c3c[nH]nc3CC3CCCCC32)cc1 (stereo unspecified)
5. COc1ccc(CN(CCc2c[nH]c3ccccc23)Cc2ccc(OC)cc2)cc1
6. COC(=O)C1Cc2c(n(C)c3ccccc23)C(c2ccccc2)N1 (stereo unspecified)
7. C=C(C)CNC(=S)N(N)c1ccc(OC)cc1
8. N#CCCN(CCC#N)c1ccc(/C=C2\N=C(c3ccccc3)N(c3ccccn3)C2=O)cc1

## Output
1. 4.03 µM (inactive)
2. 54.3 µM (inactive)
3. > 263 µM (inactive)
4. 19.5 µM (inactive)
5. 3.04 µM (inactive)
6. > 100 µM (inactive)
7. > 100 µM (inactive)
8. > 100 µM (inactive)
